Biological target: human DPP III (Homo sapiens, UniProt Q9NY33)
Construct: C-terminally truncated human DPP III was expressed and purified as described previously; His-tag (TEV-cleavable) (C, cleaved yes); made in house; host or cells: E. coli BL21-CodonPlus (DE3)-RIL
Sequence (Q9NY33 1-726 limits assumed): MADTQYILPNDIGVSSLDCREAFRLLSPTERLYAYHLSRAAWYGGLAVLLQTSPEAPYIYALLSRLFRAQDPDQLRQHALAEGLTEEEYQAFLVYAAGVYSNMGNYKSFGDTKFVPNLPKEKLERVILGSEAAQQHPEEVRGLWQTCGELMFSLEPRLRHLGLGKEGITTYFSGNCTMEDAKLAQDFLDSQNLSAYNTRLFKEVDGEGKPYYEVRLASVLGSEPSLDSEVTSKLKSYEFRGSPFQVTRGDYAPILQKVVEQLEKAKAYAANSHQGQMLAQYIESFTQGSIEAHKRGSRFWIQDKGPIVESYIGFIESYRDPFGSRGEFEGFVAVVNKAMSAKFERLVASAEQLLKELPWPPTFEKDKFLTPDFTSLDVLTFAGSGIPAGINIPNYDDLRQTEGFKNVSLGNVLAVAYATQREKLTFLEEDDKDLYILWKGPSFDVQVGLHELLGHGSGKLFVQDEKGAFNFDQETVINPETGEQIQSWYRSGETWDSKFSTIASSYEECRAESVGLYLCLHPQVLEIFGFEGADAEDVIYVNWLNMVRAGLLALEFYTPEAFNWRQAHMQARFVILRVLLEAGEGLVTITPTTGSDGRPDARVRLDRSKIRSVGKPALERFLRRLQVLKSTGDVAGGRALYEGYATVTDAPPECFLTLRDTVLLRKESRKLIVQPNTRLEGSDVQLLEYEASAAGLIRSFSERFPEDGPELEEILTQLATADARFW
Assay: hDPP III enzyme activity assay (% inhibition and IC50), substrate Arg-Arg-2-naphthylamide
Assay type: biochemical
Details: logarithm of % inhibition at 30 μmol L^–1
propertyMeasured: log % inh. exp.

c1csc(-c2ccc(-c3nc4ccc(C5=NCCN5)cc4[nH]3)s2)c1 :: 2.00
CCN(CC)c1ccc(-c2nc3ccc(C(=N)N)cc3[nH]2)c(O)c1 :: 2.00
c1ccc2c(c1)cc(-c1nc3cc(C4=NCCCN4)ccc3[nH]1)c1ccccc12 :: 1.71
Oc1ccc(-c2nc3ccc(C4=NCCN4)cc3[nH]2)c(O)c1O :: 2.00
N=C(N)c1ccc2nc(-c3ccc(-c4cccs4)s3)[nH]c2c1 :: 2.00
c1ccc2c(c1)cc(-c1nc3cc(C4=NCCN4)ccc3[nH]1)c1ccccc12 :: 2.00
FC(F)(F)c1ccc(-c2nc3ccc(C4=NCCN4)cc3[nH]2)cc1 :: 2.00
N=C(N)c1ccc2nc(-c3ccc(C(F)(F)F)cc3)[nH]c2c1 :: 1.99

Recorded values, source paper PMC12027992.
